Entry source: paper PMC8809517

- system tested: T1, GFP-9S library array, motif 4 ND N98D;D124L (synthetic construct, N98D;D124L)
- T1 chain: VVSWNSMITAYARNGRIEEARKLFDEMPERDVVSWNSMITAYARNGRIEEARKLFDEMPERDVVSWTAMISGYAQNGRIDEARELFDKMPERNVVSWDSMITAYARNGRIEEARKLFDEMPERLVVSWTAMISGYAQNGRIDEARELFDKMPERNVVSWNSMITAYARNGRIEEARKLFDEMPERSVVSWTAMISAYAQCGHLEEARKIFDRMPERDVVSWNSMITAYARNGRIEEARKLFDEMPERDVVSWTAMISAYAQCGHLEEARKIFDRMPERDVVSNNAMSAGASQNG
- measurement protocol: high-throughput RNA pulldown from lysate on Ni-NTA beads; HRP: 50 mM Tris pH 8, 150 mM NaCl, 1 mM beta-mercaptoethanol, 50 ug/ml BSA, 3 ug/ml yeast RNA, 0.5% heparin; ITC and FP: Tris pH 8, 200 mM KCl, 5% glycerol; MST: 50 mM Tris pH 8, 200 mM NaCl, 1 mM DTT, BSA, heparin, 0.05% Tween 20
- conditions used: tags: N-terminal His-eGFP; label: 5' Cy5
assay readout: Kd (nM)
Numeric only. Scale: nM

Look up Kd for this binder: AUUAGACGUGA (ssRNA) [Cy5-rpoA-G]
52.3

Given AUUACACGUGA (ssRNA) [Cy5-rpoA] , state its recorded Kd.
133
